Conditions: basic group

{"molecule": "Fc1ccc2[nH]cnc2c1", "pKa": 5.11}
{"molecule": "N#CC(C#N)=NNc1cccc(Cl)c1", "pKa": -0.78}
{"molecule": "Cc1cc(-c2ccccc2)n(-c2ccc(C(=O)O)cc2)n1", "pKa": 1.59}
{"molecule": "CCC(C)(C)N(C)C(C)(C)C", "pKa": 11.9}
{"molecule": "C=CC(C)(C)NC(C)(C)CC", "pKa": 10.8}
{"molecule": "CNC(=S)c1ccccc1", "pKa": -2.5}
{"molecule": "Cc1ccnnc1C", "pKa": 4.1}
{"molecule": "Nc1cccc2c([N+](=O)[O-])cccc12", "pKa": 2.8}
{"molecule": "c1ccc2c(c1)CCN2", "pKa": 5.49}
{"molecule": "O[C@H]1[C@H](O)[C@@H](n2cnc3ccccc32)OC[C@H]1O", "pKa": 4.15}
{"molecule": "O/N=C/c1ccnc2ccccc12", "pKa": 4.55}
{"molecule": "OCCCc1ccccn1", "pKa": 5.71}
{"molecule": "CCCCCCCCCCCN", "pKa": 10.6}
{"molecule": "Nc1ccncc1Br", "pKa": 7.15}
{"molecule": "COc1ccc2c3c1O[C@H]1CCC[C@H]4[C@@H](C2)N(C)CC[C@]314", "pKa": 8.83}
{"molecule": "NCc1cccc(O)c1", "pKa": 9.06}
{"molecule": "CN(C)c1cccc([N+](C)(C)C)c1", "pKa": 2.6}
{"molecule": "Cc1cc(C(c2ccc(N)cc2)c2ccc(N)cc2)ccc1[NH3+]", "pKa": 3.8}
{"molecule": "CN(C)CCC(c1ccccc1)c1ccccn1 (configuration not stated)", "pKa": 9.29}
{"molecule": "C=Cc1ccncc1", "pKa": 5.62}
{"molecule": "N#CC(N)c1ccccc1 (configuration not stated)", "pKa": 4.4}
{"molecule": "Cn1/c(=N\\N)sc2ccccc21", "pKa": 6.1}
{"molecule": "CCN(CC)CC(=O)[O-]", "pKa": 10.5}
{"molecule": "NCCCCCC[NH3+]", "pKa": 10.2}
{"molecule": "Oc1ccc(NCc2ccccc2)cc1", "pKa": 5.17}
{"molecule": "O=C([O-])C[NH+](CC(=O)[O-])Cc1nc2ccccc2[nH]1", "pKa": 3.95}
{"molecule": "CC1ONCc2ccccc21 (configuration not stated)", "pKa": 3.6}

---

Details: acidic group
recordedEndpoint: pKa

{"givenSmiles": "C[C@H]([NH3+])C(=O)N[C@@H](Cc1c[nH]c[nH+]1)C(=O)O", "dataValue": 2.73}
{"givenSmiles": "O=C(O)c1cc([N+](=O)[O-])ccc1C(=O)c1ccccc1", "dataValue": 2.86}
{"givenSmiles": "Nc1nc(O)[n+]([C@@H]2C[C@@H](O)[C@H](CO)O2)cc1CO", "dataValue": 3.55}
{"givenSmiles": "C[NH+]1[C@H]2CC=C(C(=O)O)[C@@H]1CC2", "dataValue": 3.93}
{"givenSmiles": "CC1=CC(=O)C(C(C)C)=C/C1=N/c1ccc(O)cc1", "dataValue": 8.8}
{"givenSmiles": "O=C(Oc1ccc([N+](=O)[O-])cc1)C1c2ccccc2-c2ccccc21", "dataValue": 9.9}
{"givenSmiles": "CSC(=O)C1c2ccccc2-c2ccccc21", "dataValue": 10.5}
{"givenSmiles": "NC(=O)CN(CCN(CC(N)=O)Cc1ccccc1O)Cc1ccccc1O", "dataValue": 10.2}

All figures here come from the pKa sets of Baltruschat and Czodrowski (2020).
